system: NCI-H226 lung; assay: NCI tumour cell line growth inhibition, 48 h
Each item that follows carries a reported TGI.

CCOP(=O)(OCC)c1ccc(=O)[nH]c1-c1cccs1 :: > 100 µM
COc1cc(C=Nc2ccc(C(C)C)cc2)cc(OC)c1OC :: > 100 µM
CC12CCC(C(=O)N3CC=CCC3)(OC1=O)C2(C)C (stereo not given) :: > 100 µM

stdin: Give the measured TGI for `C=C(Br)CN(C(C)=O)C1CCCCC1`
stdout: > 100 µM

stdin: Using known records, supply TGI for `[O-][n+]1onc(-c2ccccc2)c1CN1CCOCC1`
stdout: > 100 µM

stdin: Note down TGI recorded for `CN(C(=O)Cc1ccc(Cl)c(Cl)c1)[C@@H]1CCCC[C@H]1[N+]1(C)CC=CC1`
stdout: > 100 µM

stdin: # return recorded TGI for input `COc1cc(C(=O)C/C(CCC(=O)Nc2ccc(Cl)cc2C)=N/NC(=O)C(N)=O)ccc1O`
stdout: > 100 µM

stdin: Supply recorded TGI for NC(=O)C(c1ccccc1)N1OC2C(=O)N(c3cccc4ccccc34)C(=O)C2C1c1c2ccccc2c(Cl)c2ccccc12 (stereo not given) here.
stdout: 13.5 µM

stdin: For the compound `COc1cccc2c(Nc3ccc(S(=O)(=O)NC(C)=O)cc3)c3ccc([N+](=O)[O-])cc3nc12` , give its measured TGI value.
stdout: > 64.7 µM

stdin: Determine its reported TGI: CCC[CH2][Sn]([CH2]CCC)([O]C(=O)C(N)CSC)[O]C(=O)C(N)CSC (stereo not given)
stdout: 34.9 µM
